Where these numbers come from: patent US5990170A

# Target Or System: CB2 receptor (RBL-2H3 cell membranes) (Rattus norvegicus)
# Construct: Preparation of Plasmatic Membranes of RBL-2H3 Cells; endogenous in cells; host or cells: RBL-2H3 (rat basophilic leukemia) cell membranes
# Sequence (Q9QZN9 whole entry): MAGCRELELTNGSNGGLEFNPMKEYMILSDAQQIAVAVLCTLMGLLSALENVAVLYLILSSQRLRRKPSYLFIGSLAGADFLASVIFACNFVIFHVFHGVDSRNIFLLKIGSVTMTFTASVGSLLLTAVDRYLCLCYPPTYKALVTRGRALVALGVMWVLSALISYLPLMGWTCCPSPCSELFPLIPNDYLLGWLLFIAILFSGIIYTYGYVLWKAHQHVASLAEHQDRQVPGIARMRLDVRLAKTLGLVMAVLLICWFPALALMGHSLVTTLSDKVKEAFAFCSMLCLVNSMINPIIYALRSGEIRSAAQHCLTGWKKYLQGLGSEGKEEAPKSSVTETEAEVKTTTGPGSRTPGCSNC
# Experimental Details: Competitive displacement of 3H-WIN 55,212-2 binding to RBL-2H3 cell membranes
# Test Parameters: read-out: % Displacement
Tick met if inhibition at 10 µM is 80% or greater. Tick not met if inhibition at 10 µM is less than 80%.

Compound	Class Label
CCCCCC/C=C\CCCCCCCC(=O)NCCO [Example 19, N-(2-hydroxyethyl)-palmitoleylamide]	met

Lookup: Exam item: decide whether the reported inhibition at 10 µM for CCCCCCCCCCCCCCCC(=O)NCCO [Example 25, N-palmitoylethanolamide] is at least 80%.
Found: not met

Lookup: Exam item: decide whether the reported inhibition at 10 µM for CCCCCCCCCCCCCCCC(=O)N[C@@H](CO)c1ccccc1 is at least 80%.
Found: not met

Lookup: Exam item: decide whether the reported inhibition at 10 µM for C=CCCCCCCCCC(=O)NCCO [Example 28, N-(2-hydroxyethyl)-10-undecenoylamide] is at least 80%.
Found: not met

Lookup: Exam item: decide whether the reported inhibition at 10 µM for CCCCCCC(C)(C)c1cc(O)c2c(c1)OC(C)(C)[C@@H]1CCC(=O)C[C@@H]21 (relative stereo) [Nabilone, reference compound] is at least 80%.
Found: met

Lookup: Exam item: decide whether the reported inhibition at 10 µM for O=C(/C=C/CCCCCCCCC(=O)NCCO)NCCO is at least 80%.
Found: not met

Lookup: Exam item: decide whether the reported inhibition at 10 µM for CCCCC/C=C\C/C=C\C/C=C\C/C=C\CCCC(=O)NCCO [anandamide, arachidonylethanolamide, reference compound] is at least 80%.
Found: met

Lookup: Exam item: decide whether the reported inhibition at 10 µM for CCCCCCCCCCCCCCCC(=O)NCCOP(=O)(O)O [Example 27, N-palmitoylethanolamide phosphate] is at least 80%.
Found: not met

Lookup: Exam item: decide whether the reported inhibition at 10 µM for CCCCCCCCCCCC(=O)NCCO [Example 22, N-(2-hydroxyethyl)-lauroylamide] is at least 80%.
Found: not met
